- Test system: RAW-Dual
- assay-info: NF-kB SEAP reporter activity, fold change vs agonist alone; higher = enhanced NF-kB activity
- condition-notes: library stock concentration (final ~1000-fold dilution): 10 mM; cytotoxicity flag (confluency mask): not cytotoxic; agonist: Imiquimod (TLR7) […]
Over roughly 2,900 compounds, “NF-kB SEAP reporter activity, fold change vs agonist alone” has its median near 0.99; the highest 2% begin near 2.6. The sample as a whole holds a higher share of the highest values than the screen did.

compound: CCc1c(N(CC)C2CCOCC2)cc2oc(C3CCN(C(C)C)CC3)cc2c1C(=O)NCc1c(C)cc(C)[nH]c1=O
measurement-target: RAW-Dual
NF-kB SEAP reporter activity: 1.34

compound: N#C/C(C(=O)c1ccc(Cl)cc1Cl)=C1\NC(=O)c2ccccc2N1
measurement-target: RAW-Dual
NF-kB SEAP reporter activity: 0.86

compound: Cc1nc(NC(=O)N2CCCC2C(N)=O)sc1-c1csc(C(C)(C)C)n1 (stereo not given)
measurement-target: RAW-Dual
NF-kB SEAP reporter activity: 1.01

compound: O=S(=O)(NCCSSCCNS(=O)(=O)c1cc(Cl)ccc1Cl)c1cc(Cl)ccc1Cl
measurement-target: RAW-Dual
NF-kB SEAP reporter activity: 1.13

compound: Cc1cc([N+](=O)[O-])ccc1NS(=O)(=O)c1cc(Cl)ccc1Cl
measurement-target: RAW-Dual
NF-kB SEAP reporter activity: 1.01
